The reader will find Ki measurements below, all made with hCA IV (Homo sapiens, UniProt P22748).
Sequence (P22748 19-312): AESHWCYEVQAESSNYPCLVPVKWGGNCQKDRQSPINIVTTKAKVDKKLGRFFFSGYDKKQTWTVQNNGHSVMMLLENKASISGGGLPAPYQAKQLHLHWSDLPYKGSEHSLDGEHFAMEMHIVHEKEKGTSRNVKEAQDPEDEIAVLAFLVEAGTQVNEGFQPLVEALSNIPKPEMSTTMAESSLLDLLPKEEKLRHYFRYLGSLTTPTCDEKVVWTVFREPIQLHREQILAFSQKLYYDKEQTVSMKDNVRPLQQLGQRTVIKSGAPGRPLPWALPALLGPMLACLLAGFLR

For orientation, consider the following solved cases.
CCOC(=O)COc1ccc2oc(=O)ccc2c1 :: > 10 µM
O=C(O)COc1ccc2ccc(=O)oc2c1 :: 8.48 µM
O=C(COc1ccc2ccc(=O)oc2c1)NCCc1ccccn1 [Compound 10a] :: > 10 µM
O=C(COc1ccc2ccc(=O)oc2c1)NCCN1CCOCC1 [Compound 12a] :: > 10 µM
O=C(COc1ccc2ccc(=O)oc2c1)NCc1ccc(F)cc1 :: > 10 µM
O=C(O)COc1ccc2oc(=O)ccc2c1 :: > 10 µM
COC(=O)c1ccccc1NC(=O)COc1ccc2oc(=O)ccc2c1 :: > 10 µM
O=C(COc1ccc2oc(=O)ccc2c1)NCCN1CCCCC1 [Compound 13b] :: > 10 µM

Enter Ki (test system hCA IV (Homo sapiens, UniProt P22748)) for O=C(COc1ccc2oc(=O)ccc2c1)NCCN1CCOCC1 [Compound 12b]
> 10 µM

Enter Ki (test system hCA IV (Homo sapiens, UniProt P22748)) for O=C(COc1ccc2oc(=O)ccc2c1)NCCc1ccccn1 [Compound 10b]
> 10 µM

Enter Ki (test system hCA IV (Homo sapiens, UniProt P22748)) for O=C(COc1ccc2ccc(=O)oc2c1)Nc1ccc(F)cc1
0.35 µM

Enter Ki (test system hCA IV (Homo sapiens, UniProt P22748)) for O=C(COc1ccc2ccc(=O)oc2c1)NCc1ccccc1
> 10 µM

Enter Ki (test system hCA IV (Homo sapiens, UniProt P22748)) for O=C(COc1ccc2ccc(=O)oc2c1)NCCN1CCCCC1 [Compound 13a]
> 10 µM

====

Molecular target: hCA IX (Homo sapiens)
Assay: stopped flow CO2 hydrase assay, hCA IX
Measured endpoint: pKi
pKi is defined as minus the log10 of a concentration measured in mol/L.

For orientation, consider the following solved cases.
O=C(COc1ccc2oc(=O)ccc2c1)Nc1ccccc1 :: 6.69
COC(=O)c1ccccc1NC(=O)COc1ccc2ccc(=O)oc2c1 :: 5.56

Give the reported pKi for this molecule. CCOC(=O)COc1ccc2ccc(=O)oc2c1
6.61

Give the reported pKi for this molecule. O=C(O)COc1ccc2ccc(=O)oc2c1
6.54

====

Target chain: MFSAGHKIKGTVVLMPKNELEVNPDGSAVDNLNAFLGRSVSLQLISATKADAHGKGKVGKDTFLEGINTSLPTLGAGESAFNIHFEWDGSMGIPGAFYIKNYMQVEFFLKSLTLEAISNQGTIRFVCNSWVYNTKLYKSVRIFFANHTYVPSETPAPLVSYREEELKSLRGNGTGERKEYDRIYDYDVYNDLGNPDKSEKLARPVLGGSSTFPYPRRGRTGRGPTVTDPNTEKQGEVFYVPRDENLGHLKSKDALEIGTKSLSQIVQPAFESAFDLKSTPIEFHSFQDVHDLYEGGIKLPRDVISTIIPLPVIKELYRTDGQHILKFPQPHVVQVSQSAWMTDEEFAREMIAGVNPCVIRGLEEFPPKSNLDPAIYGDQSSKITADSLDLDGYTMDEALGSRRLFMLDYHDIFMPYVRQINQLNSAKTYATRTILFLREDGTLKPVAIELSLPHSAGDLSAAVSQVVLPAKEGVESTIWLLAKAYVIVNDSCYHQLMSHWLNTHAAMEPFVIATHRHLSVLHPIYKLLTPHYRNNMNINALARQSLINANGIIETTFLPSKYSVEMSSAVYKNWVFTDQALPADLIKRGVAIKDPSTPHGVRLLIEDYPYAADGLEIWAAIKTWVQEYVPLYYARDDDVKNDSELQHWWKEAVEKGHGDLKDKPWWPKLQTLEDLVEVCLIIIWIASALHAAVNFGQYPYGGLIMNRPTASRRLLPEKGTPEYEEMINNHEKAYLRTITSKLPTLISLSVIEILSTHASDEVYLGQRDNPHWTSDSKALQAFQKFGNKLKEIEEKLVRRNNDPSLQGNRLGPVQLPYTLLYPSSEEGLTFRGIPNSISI
Catalogue of pIC50 readings, one per entry.
pIC50 is defined as minus the log10 of a concentration measured in mol/L.

For orientation, consider the following solved cases.
O=C(COc1ccc2ccc(=O)oc2c1)NCc1ccc(F)cc1 [Compound 6a] :: 4.33
COC(=O)c1ccccc1NC(=O)COc1ccc2oc(=O)ccc2c1 [Compound 9b] :: 4.00
O=C(COc1ccc2ccc(=O)oc2c1)NCCc1ccccn1 [Compound 10a] :: 4.82

Give the reported pIC50 for this compound. O=C(COc1ccc2ccc(=O)oc2c1)NCCN1CCCCC1 [Compound 13a]
4.00

Give the reported pIC50 for this compound. O=C(COc1ccc2ccc(=O)oc2c1)Nc1ccccc1 [Compound 7a]
4.00

Give the reported pIC50 for this compound. O=C(COc1ccc2oc(=O)ccc2c1)NCCN1CCOCC1 [Compound 12b]
4.78

Give the reported pIC50 for this compound. O=C(COc1ccc2ccc(=O)oc2c1)NCCN1CCOCC1 [Compound 12a]
4.37

====

Catalogue of melting point readings, one per entry.

For orientation, consider the following solved cases.
O=C(COc1ccc2oc(=O)ccc2c1)NCCN1CCOCC1 [Compound 12b] :: 149 to 150 °C
COC(=O)c1ccccc1NC(=O)COc1ccc2ccc(=O)oc2c1 :: 213 to 214 °C
CCOC(=O)COc1ccc2ccc(=O)oc2c1 :: 112.9 to 113 °C
O=C(COc1ccc2oc(=O)ccc2c1)NCCc1ccccc1 :: 150 to 151 °C
O=C(COc1ccc2ccc(=O)oc2c1)NCCN1CCOCC1 [Compound 12a] :: 148 to 149 °C

Note: attention shifts to another entry.
Give the reported melting point for this molecule. O=C(COc1ccc2ccc(=O)oc2c1)NCCc1ccccn1 [Compound 10a]
138 to 139 °C

====

Biological target: soybean lipoxygenase (LOX) (Glycine max)
Construct: purchased Sigma Chemical, Co. (St. Louis, MO, USA)
Experiment: in vitro inhibition of soybean lipoxygenase, UV absorbance based enzyme assay
Type: biochemical
Settings: 100 μM compound; sodium linoleate 0.1 mM, pH 9; read-out: % LOX Inhibition at 100 Μμ
Catalogue of inhibition at 100 µM readings, one per entry.
# unit: % | format: bare number

For orientation, consider the following solved cases.
O=C(COc1ccc2ccc(=O)oc2c1)NCCN1CCOCC1 [Compound 12a] :: 56
O=C(COc1ccc2oc(=O)ccc2c1)NCc1ccccc1 :: 42
O=C(COc1ccc2ccc(=O)oc2c1)NCCc1ccccn1 [Compound 10a] :: 79
O=c1ccc2cc(O)ccc2o1 [Compound 1b, 6-hydroxycoumarin] :: 40

Give the reported inhibition at 100 µM for this compound. O=C(COc1ccc2ccc(=O)oc2c1)NCCN1CCCCC1 [Compound 13a]
50

====

The reader will find Ki measurements below, all made with hCA IX (Homo sapiens, UniProt Q16790).
# unit: µM | format: bare number

O=C(COc1ccc2ccc(=O)oc2c1)NCCc1ccccc1 :: 0.166
O=C(COc1ccc2ccc(=O)oc2c1)Nc1ccc(F)cc1 :: 0.136
O=C(COc1ccc2ccc(=O)oc2c1)NCCN1CCCCC1 [Compound 13a] :: 1.97
O=C(COc1ccc2ccc(=O)oc2c1)Nc1ccccc1 :: 0.201
O=C(COc1ccc2ccc(=O)oc2c1)NCCc1ccccn1 [Compound 10a] :: 2.38
O=C(COc1ccc2oc(=O)ccc2c1)NCCN1CCCCC1 [Compound 13b] :: 0.274
O=C(COc1ccc2oc(=O)ccc2c1)NCc1ccccc1 :: 0.0302

Note: attention shifts to another entry.
Enter Ki (test system hCA IX (Homo sapiens, UniProt Q16790)) for O=C(COc1ccc2oc(=O)ccc2c1)NCCc1ccccn1 [Compound 10b]
2.15

====

Catalogue of inhibition at 100 µM readings, one per entry.
Target: soybean lipoxygenase (LOX) (Glycine max, UniProt P08170)
Construct: purchased Sigma Chemical, Co. (St. Louis, MO, USA)
Test: in vitro inhibition of soybean lipoxygenase, UV absorbance based enzyme assay
Type: biochemical
Settings: 100 μM compound; sodium linoleate 0.1 mM, pH 9; read-out: % LOX Inhibition at 100 Μμ
# unit: % | format: bare number

COC(=O)c1ccccc1NC(=O)COc1ccc2oc(=O)ccc2c1 [Compound 9b] :: 50
O=C(COc1ccc2oc(=O)ccc2c1)NCCc1ccccn1 [Compound 10b] :: 40
O=C(COc1ccc2oc(=O)ccc2c1)NCCN1CCOCC1 [Compound 12b] :: 64
O=C(COc1ccc2ccc(=O)oc2c1)Nc1ccccc1 [Compound 7a] :: 50

Note: attention shifts to another entry.
Give the reported inhibition at 100 µM for this compound. O=C(COc1ccc2ccc(=O)oc2c1)NCCc1ccccc1 [Compound 4a]
96

====

Catalogue of melting point readings, one per entry.

For orientation, consider the following solved cases.
O=C(COc1ccc2ccc(=O)oc2c1)NCCN1CCCCC1 [Compound 13a] :: 116 to 117 °C
O=C(COc1ccc2oc(=O)ccc2c1)NCCc1ccccn1 [Compound 10b] :: 141 to 142 °C
O=C(COc1ccc2oc(=O)ccc2c1)Nc1ccccc1 :: 182 to 183 °C
O=C(COc1ccc2ccc(=O)oc2c1)Nc1ccc(F)cc1 :: 208 to 209 °C
O=C(COc1ccc2ccc(=O)oc2c1)NCc1ccc(F)cc1 :: 160 to 161 °C

Give the reported melting point for this compound. O=C(COc1ccc2ccc(=O)oc2c1)NCc1ccccc1
167 to 168 °C

Give the reported melting point for this compound. O=C(COc1ccc2oc(=O)ccc2c1)NCCN1CCCCC1 [Compound 13b]
115 to 116 °C

Give the reported melting point for this compound. CCOC(=O)COc1ccc2oc(=O)ccc2c1
120 to 122 °C

Give the reported melting point for this compound. O=C(COc1ccc2ccc(=O)oc2c1)Nc1ccccc1
182 to 183 °C

Give the reported melting point for this compound. O=C(COc1ccc2ccc(=O)oc2c1)NCCc1ccccc1
178 to 179 °C

Give the reported melting point for this compound. COC(=O)c1ccccc1NC(=O)COc1ccc2oc(=O)ccc2c1
213 to 214 °C
